Assay: Plasma pharmacokinetics in tumor-bearing mice
Details: nude, mouse, in vivo, iv, 600 ug/kg
parameterMeasured: AUC(0-inf) (ng·h/mL)

> print(dat)
                                   compound  parametermeasured  testvalue
1  CC(C)[C@]12O[C@H]1[C@@H]1O[C@]13[C@]1(O[C@H]1C[C@H]1C4=C(CC[C@@]13C)C(=O)OC4)[C@@H]2O [TP, triptolide]         AUC(0-inf)       1400

---

Experiment: Plasma pharmacokinetics in tumor-bearing mice
Settings: nude, mouse, in vivo, iv, 600 ug/kg
parameterMeasured: half-life (min)

> print(dat)
                                   compound  parametermeasured  unitofmeasure  testvalue
1  CC(C)[C@]12O[C@H]1[C@@H]1O[C@]13[C@]1(O[C@H]1C[C@H]1C4=C(CC[C@@]13C)C(=O)OC4)[C@@H]2O [TP, triptolide]          half-life            min       18.6

Each recorded value in this set is attributed to paper PMC9400227.
